src = ChEMBL document CHEMBL5523735

- assay-target: UniProt:Q15391
- assay-comment: Antagonist activity at P2Y14R (unknown origin) stably expressed in HEK293 cells assessed as inhibition of forskolin-induced cAMP production by cAMP-Glo assay
quantity-kind: IC50 (nM)

Solved entries (count: 5):
test-smiles	IC50 / nM
Cc1ccc(C(=O)Nc2cc(C(=O)O)sc2Oc2ccc(F)cn2)cc1	0.4
Cc1ccc(Oc2sc(C(=O)O)cc2NC(=O)c2cnc(C)nc2)cn1	3130
CC(=O)Nc1ccc(Oc2sc(C(=O)O)cc2NC(=O)c2ccc(C)cc2)cc1	18600
Cc1ccc(C(=O)Nc2cc(C(=O)O)sc2Oc2ccc(C)nc2)cc1	6.53
Cc1ccc(C(=O)Nc2cc(C(=O)O)sc2Oc2ccccn2)cc1	1690

(1) Cc1ccc(C(=O)Nc2cc(C(=O)O)sc2Oc2ccccc2F)cc1
(2) Cc1ccc(Oc2sc(C(=O)O)cc2NC(=O)c2cnc(C)cn2)cn1
(3) COc1ccc(C(=O)Nc2cc(C(=O)O)sc2Oc2ccc(C)nc2)cc1
(4) Cc1ccc(Oc2sc(C(=O)O)cc2NC(=O)c2ccccc2)cn1
Arrange items by their IC50 values in increasing order. Please list the labels according to the requested order.
3, 4, 1, 2
(3: 1.29 nM, 4: 13 nM, 1: 104 nM, 2: 1060 nM)

(I) Cc1ccc(C(=O)Nc2cc(C(=O)O)sc2Oc2cccc(F)c2)cc1
(II) Cc1ccc(Sc2sc(C(=O)O)cc2NC(=O)c2ccc(C)cc2)cc1
Lab notebook, comparison: I versus II , higher IC50 goes to which? In your reply, give the label of the chosen option.
I

(I) O=C(CCCNC(=S)Nc1ccc2c(c1)C(=O)OC21c2ccc(O)cc2Oc2cc(O)ccc21)NCCCC(=O)N1CCC(c2ccc(-c3cc(C(=O)O)cc4cc(-c5ccc(C(F)(F)F)cc5)ccc34)cc2)CC1
(II) CCCc1ccc(Oc2sc(C(=O)O)cc2NC(=O)c2ccc(C)cc2)cc1
Please compare: I and II . Report which one has the smaller IC50 value. Select an item and report its label.
I

* * *

- assay-target: UniProt:Q9H244
- Sequence (Q9H244 whole entry): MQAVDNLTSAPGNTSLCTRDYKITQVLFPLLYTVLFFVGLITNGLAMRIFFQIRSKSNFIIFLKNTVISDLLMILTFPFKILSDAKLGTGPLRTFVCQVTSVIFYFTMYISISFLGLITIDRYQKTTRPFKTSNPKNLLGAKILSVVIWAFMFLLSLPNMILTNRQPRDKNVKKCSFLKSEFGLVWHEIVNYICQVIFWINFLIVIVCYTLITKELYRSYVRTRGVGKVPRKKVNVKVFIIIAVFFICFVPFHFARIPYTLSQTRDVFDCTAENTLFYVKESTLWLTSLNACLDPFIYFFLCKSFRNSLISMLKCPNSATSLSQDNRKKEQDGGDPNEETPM
- assay-comment: Inhibition of P2Y12R (unknown origin) expressed in HEK293 cells assessed as restoration of cAMP reduction
- Assay type: functional, cell-based
quantity-kind: pIC50
# pIC50 = -log10(concentration in molar units)

Find the measured pIC50: item CCCSc1nc(N[C@@H]2C[C@H]2c2ccc(F)c(F)c2)c2nnn([C@@H]3C[C@H](OCCO)[C@@H](O)[C@H]3O)c2n1 [TICAGRELOR] , target or system UniProt:Q9H244.
5.89

* * *

- assay-target: UniProtKB Q15391
- measurement-conditions: HEK293, dose 100.0 nM
- Description: Antagonist activity at P2Y14R (unknown origin) stably expressed in HEK293 cells assessed as inhibition of forskolin-induced cAMP production at 100 nM by cAMP-Glo assay relative to control
quantity-kind: inhibition (%)

// below: answered molecules
> print(dat)
                                test.smiles      assay.target  value.reported
1  Cc1ccc(C(=O)Nc2cc(C(=O)O)sc2Oc2ccc(OC(F)(F)F)cc2)cc1  UniProtKB Q15391            32.7
2  CC(=O)c1ccc(Oc2sc(C(=O)O)cc2NC(=O)c2ccc(C)cc2)cc1  UniProtKB Q15391            34.5
3  Cc1ccc(Oc2sc(C(=O)O)cc2NC(=O)c2ccc(C(F)(F)F)cc2)cn1  UniProtKB Q15391            39.7

(I) Cc1ccc(Oc2sc(C(=O)O)cc2NC(=O)c2ccc(Cl)cc2)cn1
(II) Cc1ccc(C(=O)Nc2cc(C(=O)O)sc2Oc2ccc(Cl)cc2)cc1
From the items above, decide which of I and II has the lower inhibition reading. To answer, give the label that identifies your chosen option.
I
(I: 21%, II: 39.9%)
